- Test system: MOLT-4 cells
- ASSAY COMMENT: Inhibitory activity on MOLT4 cell proliferation by Cell Titer-Glo method
- Format: cell-based
- MEASUREMENT SETUP: Homo sapiens, 72 hours incubation, read-out: IC50 concentration for inhibiting MOLT-4 cells
VALUE TYPE: IC50

>  <COMPOUND>
C=Cc1cc(-c2ncc3c(n2)CN(C(=O)c2ccc(/C=C/c4ccc(C#CCN5CCN(CCCCc6ccc7c(c6)CN(C6CCC(=O)NC6=O)C7=O)CC5)cc4)cc2)CC3)cnc1C=C (centres unmarked)

>  <TEST RESULT>
1 to 10 µM

$$$$
>  <COMPOUND>
C=Cc1cc(-c2nc3c(c(NC)n2)CCN(C(=O)c2ccc(COc4ccc(C#CCN5CCN(CCCCCCOc6cccc7c6C(=O)N(C6CCC(=O)NC6=O)C7=O)CC5)cc4)cc2)C3)cnc1C=C (centres unmarked)

>  <TEST RESULT>
50 to 100 µM

$$$$
>  <COMPOUND>
C=Cc1cc(-c2ncc3c(n2)CN(C(=O)c2ccc(/C=C/c4ccc(C#CCN5CCN(CCCCCOc6cccc7c6C(=O)N(C6CCC(=O)NC6=O)C7=O)CC5)nc4)cc2)CC3)cnc1C=C (centres unmarked)

>  <TEST RESULT>
> 200 µM

$$$$

Fill in IC50 for C=Cc1cc(-c2nc3c(c(NC)n2)CCN(C(=O)c2ccc(COc4ccc(C#CCN5CCN(CCCCCNc6cccc7c6C(=O)N(C6CCC(=O)NC6=O)C7=O)CC5)cc4)cc2)C3)cnc1C=C (centres unmarked) tested with MOLT-4 cells. 100 to 200 µM

Fill in IC50 for O=C1CCC(N2Cc3cc(C4CN(C5CCN(CC#Cc6ccc(OCC78CC(C(=O)N9CCc%10cnc(-c%11cnc%12ccccc%12c%11)nc%10C9)(C7)C8)cc6)CC5)C4)ccc3C2=O)C(=O)N1 (centres unmarked) tested with MOLT-4 cells. 1 to 10 µM
